This collection of values is drawn from ChEMBL document CHEMBL1122434.

Test system: L1210
Experiment: Antitumor activity against L1210 leukemia cells measured as percent increase in life span (% ILS) at 10 mg/kg
Format: functional
Conditions: Mus musculus
Recorded ILS at 10 mg/kg values for a group of compounds are listed next.

input_smiles | ILS at 10 mg/kg
Cc1c2c(NCCCN(C)C)nccc2c(C)c2c1c1cc(O)ccc1n2C | 68%
CCNCCCNc1nccc2c(C)c3[nH]c4ccc(OC)cc4c3cc12 | 26%
CCNCCCNc1nccc2c(C)c3[nH]c4ccncc4c3cc12 | 114%

###

Tested on: Mus musculus
Experiment: Acute toxicity in mice (LD100) after i.p. administration
Format: organism-based
Conditions: in vivo, ip

compound | unit_name | LD100
CCNCCCNc1nccc2c(C)c3[nH]c4ccncc4c3cc12 | mg/kg | 30
CCN(CC)CC(O)CNc1nccc2c(C)c3[nH]c4ccncc4c3cc12 (stereo not given) | mg/kg | 40
COc1ccc2[nH]c3c(C)c4ccnc(NCCCN(CCO)CCO)c4c(C)c3c2c1 | mg/kg | 15
CCNCCCNc1nccc2c(C)c3[nH]c4ccc(OC)cc4c3c(C)c12 | mg/kg | 20
COc1ccc2[nH]c3c(C)c4ccnc(NCCCN(CCCl)CCCl)c4cc3c2c1 | mg/kg | 20

###

Experiment: Acute toxicity in mice (LD0) after i.p. administration (highest nontoxic dose)
Type: organism-based
Details: mouse, in vivo, ip; read-out: LD0
Recorded MTD values for a group of molecules are listed next.

molecule | MTD [mg/kg]
CCN(CC)CCCNc1nccc2c(C)c3[nH]c4ccncc4c3cc12 | 25
CCN(CC)CCCNc1nccc2c(C)c3c(cc12)c1cc(O)ccc1n3C | 12.5
CCNCCCNc1nccc2c(C)c3c(c(C)c12)c1cc(O)ccc1n3C | 10
CCN(CC)CCCNc1nccc2c(C)c3c(c(C)c12)c1cc(O)ccc1n3C | 12
Cc1c2ccnc(NCCCN(CCO)CCO)c2cc2c3c[nH]ccc-3nc12 | 30
Cc1c2ccnc(NCCCN(C)C)c2c(C)c2c1[nH]c1ccncc12 | 15
Cc1c2ccnc(NCC(O)CO)c2cc2c3c[nH]ccc-3nc12 (centres undefined) | 40
CCN(CCCN)CCCNc1nccc2c(C)c3[nH]c4ccncc4c3cc12 | 20
COc1ccc2[nH]c3c(C)c4ccnc(NCCCN(CCO)CCO)c4c(C)c3c2c1 | 10
